- test name: Plasma stability assay
- setup conditions: male rat plasma (1:1 plasma:pH 7.4 buffer), 1 μM, 37° C., 3 hours
Labelling field: enter T if recorded % Remaining is less than 90%. Enter F if it equals or exceeds that cut-off.

- item smiles: "CNCC(=O)N1C[C@H](NC(=O)c2ccccc2)C[C@H]1C(=O)O"
  assigned category: "F"
- item smiles: "NCC(=O)N1C[C@H](NC(=O)c2ccccc2)C[C@H]1C(N)=O"
  assigned category: "T"
- item smiles: "NCC(=O)N1C[C@H](NC(=O)c2ccccc2)C[C@H]1C(=O)NC1CCC1"
  assigned category: "F"
- item smiles: "O=C(N[C@@H]1C[C@@H](C(=O)O)N(C(=O)CNC(=O)C(F)(F)F)C1)c1ccccc1"
  assigned category: "T"
- item smiles: "CNC(=O)[C@@H]1C[C@@H](NC(=O)c2ccccc2)CN1C(=O)CN"
  assigned category: "T"

----------
- test name: Plasma stability assay
- setup conditions: male rat plasma (1:1 plasma:pH 7.4 buffer), 1 μM, 37° C., 3 hours
Reported values of % Remaining for individual entries
assay metric: % Remaining

- item smiles: "CN(C)CC(=O)N1C[C@H](NC(=O)c2ccccc2)C[C@H]1C(=O)O"
  data value: "100%"
- item smiles: "NCC(=O)N1C[C@H](NC(=O)c2ccccc2)C[C@H]1C(=O)NC1CC1"
  data value: "96%"
- item smiles: "CCNC(=O)[C@@H]1C[C@@H](NC(=O)c2ccccc2)CN1C(=O)CN"
  data value: "100%"
- item smiles: "CC(C)NC(=O)[C@@H]1C[C@@H](NC(=O)c2ccccc2)CN1C(=O)CN"
  data value: "100%"
- item smiles: "CC(=O)NCC(=O)N1C[C@H](NC(=O)c2ccccc2)C[C@H]1C(=O)O"
  data value: "100%"
- item smiles: "O=CNCC(=O)N1C[C@H](NC(=O)c2ccccc2)C[C@H]1C(=O)O"
  data value: "107%"
- item smiles: "CC(C)(C)OC(=O)NCC(=O)N1C[C@H](NC(=O)c2ccccc2)C[C@H]1C(=O)O"
  data value: "100%"
- item smiles: "CCC(CC)NC(=O)[C@@H]1C[C@@H](NC(=O)c2ccccc2)CN1C(=O)CN"
  data value: "93%"

Origin of values: patent US8431540B2
